- subject of test: Human SARS Coronavirus Spike S1 Subunit Protein (His Tag) (Sino 40150-V08B1) (Human SARS Coronavirus, UniProt P59594 14-667)
- method: Luminex bead binding, antigen on microspheres, antibody supernatant
endpoint: MFI (MFI)

binder	endpoint	unit abbreviation	observed
mAb10955 (antibody, V domains shown) VH: EVQLVESGGGLVQPGGSLRVSCAASGFTVSRNYMSWVRQAPGKGLEWVSVIYSGGSTFYADSVKGRFTISRDNSKNTLYLQMNSLRAEDTAIYYCARYIPRFDPWGQGTLVTVSS VL: DIQMTQSPSSLSASVGDRVTITCQASQDISNYLNWFQQKPGRAPKLLIYDASNLETGVPSRFSGSGSGTDFTFTISSLQPEDIATYYCQQYDNLPITFGQGTRLEIKR	MFI	MFI	14
mAb10989 (antibody, V domains shown) VH: QVQLVQSGAEVKKPGASVKVSCKASGYIFTGYYMHWVRQAPGQGLEWMGWINPNSGGANYAQKFQGRVTLTRDTSITTVYMELSRLRFDDTAVYYCARGSRYDWNQNNWFDPWGQGTLVTVSS VL: QSALTQPASVSGSPGQSITISCTGTSSDVGTYNYVSWYQQHPGKAPKLMIFDVSNRPSGVSDRFSGSKSGNTASLTISGLQAEDEADYYCSSFTTSSTVVFGGGTKLTVLG	MFI	MFI	21
mAb10964 (antibody, V domains shown) VH: QVQLQESGPGLVKPSETLSLTCTVSGGSINNYYWIWIRQPPGKGLEWIGYIYHSGSTNYNPSLKSRVTISVDTSKNQFSLKVSSVTAADTAVYYCANMVRGVYEDDYWGQGTLVTVSS VL: DIQMTQSPSSLSASVGDRVTITCRASQSISNYLNWYQQKPGKAPKLLIFAASSLRSGVPSRFSGSGSGTDFTLTISSLHPEDFATYYCQQNYNTPLTFGPGTKVDIKR	MFI	MFI	5190
mAb10971 (antibody, V domains shown) VH: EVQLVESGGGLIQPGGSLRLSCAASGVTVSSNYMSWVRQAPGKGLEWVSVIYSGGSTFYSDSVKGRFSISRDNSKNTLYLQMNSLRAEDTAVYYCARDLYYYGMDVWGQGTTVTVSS VL: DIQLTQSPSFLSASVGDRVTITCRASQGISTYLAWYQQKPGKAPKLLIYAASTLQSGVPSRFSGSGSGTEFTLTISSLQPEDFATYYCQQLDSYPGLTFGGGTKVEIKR	MFI	MFI	20

The reported measurements were obtained from patent US20220356230A1.
